# System tested: UniProtKB P08908
# Sequence (P08908 whole entry): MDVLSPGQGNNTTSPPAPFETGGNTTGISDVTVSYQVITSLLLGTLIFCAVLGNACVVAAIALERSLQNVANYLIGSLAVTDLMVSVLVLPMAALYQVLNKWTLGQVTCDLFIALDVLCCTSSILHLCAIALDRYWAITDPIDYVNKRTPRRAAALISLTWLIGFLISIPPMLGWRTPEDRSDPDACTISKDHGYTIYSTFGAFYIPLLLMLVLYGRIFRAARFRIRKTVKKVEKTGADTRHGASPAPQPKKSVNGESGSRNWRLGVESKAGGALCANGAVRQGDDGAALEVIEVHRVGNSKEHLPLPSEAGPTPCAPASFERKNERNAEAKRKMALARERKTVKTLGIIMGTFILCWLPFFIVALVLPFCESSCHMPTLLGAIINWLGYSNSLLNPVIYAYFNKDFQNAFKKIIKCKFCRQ
Assay readout: Ki

For the record CN(Cc1cccc(F)c1)[C@H]1C2C3CC4C2C(=O)C2C4C3C21 (stereo partly specified) , what value of Ki is listed for UniProtKB P08908?
> 10 µM
